Where do the numbers come from? From PubChem BioAssay.

# assay-explanation: RPL19A-GFP modulators, yeast TOR pathway, confirmation, cell-based, S. cerevisiae, flow cytometry, cherry picks, mother/daughter gates (AID 2270)
# conditions: S. cerevisiae RPL19A-GFP strain, 3 h, at 10 µM, stronger effect = lower value, 100 = same GFP as DMSO wells
Entries and their GFP response vs DMSO values follow.
observed-property: GFP response vs DMSO (%)

                                    compound  unit_of_measure  test_value
 0  CCOc1ccc(C(C)=O)cc1N1C(=O)C2C3C=CC(O3)C2C1=O (stereo not drawn)                %         100
 1  O=C1CC(SCc2nc3ccccc3[nH]2)C(=O)N1c1cccc(F)c1 (stereo not drawn)                %        98.7
 2  N#C/C(=C\c1c(N2CCCCCC2)nc2ccccn2c1=O)C(=O)NC1CCS(=O)(=O)C1 (stereo not drawn)                %        99.9
 3       Cc1cccc(OCCCSc2nc3ccc(C)cc3[nH]2)c1                %          92
 4          O=C(NCc1cccnc1)c1cnc2n(c1=O)CCS2                %         101
 5  Cc1ccc(C2CCN(C(=S)Nc3cccc(Cl)c3)C2)cc1 (stereo not drawn)                %        96.2
 6             COc1ccc(CN2CCSc3sccc3C2=O)cc1                %        93.2
 7  O=C1c2cccc3c([N+](=O)[O-])ccc(c23)C(=O)N1O                %         131
 8   Cc1cc(-n2nc(C)cc2C)n2ncc(-c3ccccc3)c2n1                %         105
 9    CCOc1cc(/C=N/Nc2nc(C)cc(=O)[nH]2)ccc1O                %         102
10  CCc1ccc(CNC(=O)CCC(=O)N2Cc3cccc(OC)c3Oc3ncccc32)cc1                %        99.2
11  COc1ccccc1C1C2=C(CC(C)(C)CC2=O)N(CC(=O)O)C2=C1C(=O)CC(C)(C)C2                %         102
12  Cc1ccc(NC(=S)N/N=C/c2c(C)[nH]c3ccccc23)cc1                %        97.4
13         O=C1C=CC(=O)N1c1cccc(-c2ccccc2)c1                %        70.2
14  O=[N+]([O-])c1ccc(Sc2nc3ccccc3o2)c([N+](=O)[O-])c1                %        93.5
15    Cc1ccc(/C=c2\sc3nc(-c4cccs4)nn3c2=O)o1                %        98.6
16  COc1cccc(NC(=O)/C=C/c2ccc([N+](=O)[O-])cc2)c1                %          96
17      Cc1cc(O)c(C(=O)/C=C/c2ccccc2)c(=O)o1                %        97.6
18  COc1ccccc1N1C(=O)CC(Sc2nccc(C)n2)C1=O (stereo not drawn)                %         101
19  O=[N+]([O-])c1cc(CN2CCN(c3ccccc3)CC2)c(O)c2ncccc12                %        76.4
20        Nc1cc(N)nc(SCC(=O)N2CCc3ccccc32)n1                %         100
21                 O=C(Nc1cccc(F)c1)c1ccccc1                %        99.4
22  CCn1c(=O)c(C(=O)Nc2nc3ccccc3[nH]2)c(O)c2ccccc21                %        82.3
